- System: U-251
- protocol description: NCI tumour cell line growth inhibition, 48 h
Calls of active or inactive are those of the source. Cut-off read from the data, not from the text of the source: active = GI50 up to about 1.1 µM and inactive = higher.
readout type: GI50

> print(dat)
                                   compound  readout.type       reported.value
1  CO[C@@H]1C=C[C@@]23c4cc5c(cc4CN(C[C@@H]2O)[C@H]3C1)OCO5 [(+)-HAEMANTHAMINE]          GI50     15 µM (inactive)
2      CCCCN/C(=N\C#N)N(Cc1ccccc1)Cc1ccccc1          GI50   28.5 µM (inactive)
3  O=c1[nH]nc(Nc2ccccc2)c2nnn(Cc3ccccc3)c12          GI50   30.7 µM (inactive)
4  O=C1c2ccccc2C2(O)N(c3ccccc3)C(=S)N(c3ccccc3)C12O (stereo not drawn)          GI50  > 100 µM (inactive)
5       Cc1ccc(Nc2nc3[nH]ccc3c(=O)[nH]2)cc1          GI50  > 100 µM (inactive)
6  O=C/C1=C/C2=Cc3ccccc3C=C(/C=C(/C=O)C1)C2          GI50   34.3 µM (inactive)
7  [O-][S+]1CC[S+]([O-])CC[S+]([O-])CC1 (stereo not drawn)          GI50  > 100 µM (inactive)
8  CC1(CCCO)CCCCCCCCCC(C)(CCCO)C1=O (stereo not drawn)          GI50  > 100 µM (inactive)

Prompt line: Quick one: GI50 for `COc1cc2nc(-c3cccs3)nc(Nc3cccc([N+](=O)[O-])c3)c2cc1OC` ?
Response line: 17.3 µM (inactive)

Prompt line: Then what about the compound CC1C/C(=N\N(C)C)C(C#N)(C#N)C1(C#N)C#N (stereo not drawn) ?
Response line: 18.7 µM (inactive)

Prompt line: Then what about the compound COc1cc(C(CN)N(C)C)cc(OC)c1OC (stereo not drawn) ?
Response line: > 100 µM (inactive)

Prompt line: Then what about the compound `N#C/C(=C/c1ccc2c(c1)OCO2)C(=O)c1ccccc1` ?
Response line: > 100 µM (inactive)

Prompt line: Then what about the compound O=C1NC(=O)C2(CCc3ccc(N(CCCl)CCCl)cc32)N1 (stereo not drawn) ?
Response line: 6.78 µM (inactive)

Prompt line: Then what about the compound `Cc1cccc(/N=N/C(=O)NNc2cccc(C)c2C)c1C` ?
Response line: 35.8 µM (inactive)

Prompt line: Then what about the compound `CCOC(=O)c1c(SC(=O)c2ccc(C(C)(C)C)cc2)n(-c2ccccc2)c(=S)n(-c2ccccc2)c1=O` ?
Response line: > 100 µM (inactive)

Prompt line: Then what about the compound `Brc1c2nc3ccccc3nc2n2ccc3ccccc3c12` ?
Response line: > 100 µM (inactive)

Prompt line: Then what about the compound N=C(N)C(/N=N\c1ccccc1)C(N)=O (stereo not drawn) ?
Response line: > 100 µM (inactive)

Prompt line: Then what about the compound `N#CCCN(CCCN(C(=O)Nc1ccc(NC(=O)N(CCCN(CCC#N)C(N)=O)c2ccccc2)cc1)c1ccccc1)C(N)=O` ?
Response line: > 100 µM (inactive)

Prompt line: Then what about the compound NC(=O)CC(N)C(N)=O (stereo not drawn) ?
Response line: > 100 µM (inactive)

Prompt line: Then what about the compound S=C(S)NCC1CCC(CNC(=S)S)CC1 (stereo not drawn) ?
Response line: 20.1 µM (inactive)

Prompt line: Then what about the compound C=C(C)C(=O)N1c2ccc(OC)cc2CC1C(=O)OCC (stereo not drawn) ?
Response line: > 100 µM (inactive)

Prompt line: Then what about the compound CC(=O)OC1COC(n2ccc3cc(Br)c([N+](=O)[O-])cc32)C(OC(C)=O)C1OC(C)=O (stereo not drawn) ?
Response line: 19.5 µM (inactive)

====

- System: EKVX
- protocol description: NCI tumour cell line growth inhibition, 48 h
Structures can show the parent of a compound that is named as a salt. Calls of active or inactive are those of the source. No stated cut-off is given here; in the data, active = GI50 up to about 1.1 µM and inactive = higher.
// classify into label 1 (active), label 0 (inactive)

Known results for molecules:
molecule	class label
Cc1n[nH]c(N)c1C(N)=O	label 0
CC(=O)N(O)CCCCCNC(=O)CCC(=O)N(O)CCCCCNC(=O)CCC(=O)N(O)CCCCCN [DEFEROXAMINE HYDROCHLORIDE]	label 0

Prompt line: Hi team, can someone confirm the assay call for [O-][S+](Cc1ccccc1)c1ccccc1Cn1cccc1 (centres undefined) ?
Response line: label 0

Prompt line: Then what about the molecule `OCCCCCNc1nc(O)c2[nH]cnc2n1` ?
Response line: label 0

Prompt line: Then what about the molecule `COc1ccccc1NC(=O)C1=C(C)NC(C)=C(C(=O)Nc2ccccc2OC)C1C1=CC=COC1` ?
Response line: label 0

====

- Test system: SNB-75
- protocol description: NCI tumour cell line growth inhibition, 48 h
Where a name gives a salt, the structure may show the parent alone. Calls of active or inactive are those of the source. Cut-off read from the data, not from the text of the source: active = GI50 up to about 1.1 µM and inactive = higher.
Let's look at some compounds and their measured GI50.

For orientation, consider the following solved cases.
compound	readout type	reported value
COc1ccc(/N=C2\C(=S)N(c3ccc(OC)cc3)/C(=N/S(=O)(=O)c3ccccc3)N2c2ccccc2)cc1	GI50	17.3 µM (inactive)
Cc1n[nH]c(N)c1C(N)=O	GI50	> 100 µM (inactive)
O=S(=O)(O)c1ccc(-c2c3nc(c(-c4ccc(S(=O)(=O)O)cc4)c4ccc([nH]4)c(-c4ccc(S(=O)(=O)O)cc4)c4nc(c(-c5ccc(S(=O)(=O)O)cc5)c5ccc2[nH]5)C=C4)C=C3)cc1	GI50	> 100 µM (inactive)

Prompt line: Quick one: GI50 for NCCCCNCCCN [SPERMIDINE TRIHYDROCHLORIDE] ?
Response line: > 100 µM (inactive)

Prompt line: Then what about the compound `O=c1c2ccccc2n2nnc3ccc(NCCCNCCNCCCNc4ccc5nnn6c7ccccc7c(=O)c4c56)c1c32` ?
Response line: 7.89 µM (inactive)

Prompt line: Then what about the compound CC1(C)COC(c2ccc(C(F)(F)F)cc2C(O)c2ccc3ccccc3c2)=N1 (stereo unspecified) ?
Response line: 15.8 µM (inactive)

Prompt line: Then what about the compound `O=C1CN(c2ccccc2)C(=O)CN1CCN1CC(=O)N(c2ccccc2)CC1=O` ?
Response line: > 100 µM (inactive)

Prompt line: Then what about the compound COC(=O)CC1NC(=O)[C@@H]1C(C)O (stereo partly specified) ?
Response line: > 100 µM (inactive)

Prompt line: Then what about the compound C=C(C#N)C1OCC2OC(C)(C)OC21 (stereo unspecified) ?
Response line: 20.1 µM (inactive)

Prompt line: Then what about the compound `O=c1oc2c3ccc4ccccc4c3n(CCCN3CCCCC3)c2c2ccccc12` ?
Response line: 52.2 µM (inactive)

Prompt line: Then what about the compound CCOc1ccccc1/N=N/C1C(=O)N(C(=O)CC(=O)Nc2ccccc2OC)N=C1C (stereo unspecified) ?
Response line: 16.3 µM (inactive)

Prompt line: Then what about the compound `Cc1ccc(S(=O)(=O)OCC/C(=C\[Si](C)(C)C)c2ccccc2)cc1` ?
Response line: > 100 µM (inactive)

====

Let's look at some compounds and their measured GI50.
- System: XF498
- protocol description: NCI tumour cell line growth inhibition, 48 h
Activity calls are given as the source filed them. Cut-off read from the data, not from the text of the source: active = GI50 up to about 1.1 µM and inactive = higher.

For orientation, consider the following solved cases.
> print(dat)
                                   compound  target.system  readout.type       reported.value
1         COc1ccc(OC)c2cc(C3(C)SCCCS3)ccc12          XF498          GI50   61.7 µM (inactive)
2      CN(C)/C(=N/C(=O)Nc1ccccc1)SCc1ccccc1          XF498          GI50   6.43 µM (inactive)
3                    Cn1nc(N)nc1N=S(C)(C)=N          XF498          GI50  > 100 µM (inactive)
4  Cc1ccc(S(=O)(=O)OCC/C(=C\[Si](C)(C)C)c2ccccc2)cc1          XF498          GI50  > 100 µM (inactive)
5  CC(=O)OC1COC(n2ccc3cc(Br)c([N+](=O)[O-])cc32)C(OC(C)=O)C1OC(C)=O (stereo not given)          XF498          GI50   14.3 µM (inactive)

Prompt line: Quick one: GI50 for `COc1ccc(-c2cc(=O)c3cc(C)c(C)c(C(=O)O)c3o2)cc1` ?
Response line: > 100 µM (inactive)

Prompt line: Then what about the compound `O=C1c2ccccc2C(=O)c2sc(Nc3ccc(Cl)cc3)nc21` ?
Response line: 2.16 µM (inactive)

====

- Test system: K562
- protocol description: NCI tumour cell line growth inhibition, 48 h
Active and inactive are the calls of the source. No stated cut-off is given here; in the data, active = GI50 up to about 1.1 µM and inactive = higher.
// classify into YES = active, NO = inactive

compound	class label
CC(=O)O[C@H]1C(=O)[C@@]2(C)[C@H]([C@H](OC(=O)c3ccccc3)[C@]3(O)C[C@H](OC(=O)[C@H](O)[C@@H](NC(=O)c4ccccc4)c4ccccc4C)C(C)=C1C3(C)C)[C@]1(OC(C)=O)CO[C@@H]1C[C@@H]2O	YES
N/N=C(\N)SCCCCCCCCCCS/C(N)=N/N	NO
CC1(c2cccc(C3CC4(CCC3=O)OCCCCO4)c2)OCCO1 (stereo not given)	NO

Prompt line: Hi team, can someone confirm the assay call for `N#CCCN(CCCN(C(=O)Nc1ccc(NC(=O)N(CCCN(CCC#N)C(N)=O)c2ccccc2)cc1)c1ccccc1)C(N)=O` ?
Response line: NO

Prompt line: Then what about the compound `COC1=C(OC)CCC(/C(C#N)=C/c2ccc(OC)c(OC)c2)=C1` ?
Response line: NO
